test system: HepG2; assay: Cytotoxicity against human HepG2 cells assessed as reduction in cell viability at 0.01 to 300 uM incubated for 4 hrs by LDH release assay; format: cell-based; conditions: hepg2, 4 h
result.type: Activity

INSERT INTO assay_data (molecule, endpoint_result) VALUES
  ('O=C(O)c1cccc(CSc2nc(-c3ccccc3)c(Br)c(=O)[nH]2)c1', 'Non-Toxic'),
  ('N#Cc1c(-c2cccs2)nc(SCc2cccc(-c3noc(=O)[nH]3)c2)[nH]c1=O', 'Non-Toxic'),
  ('N#Cc1c(-c2cccs2)nc(SCc2cccc(C(=O)O)c2)[nH]c1=O', 'Non-Toxic'),
  ('N#Cc1c(-c2ccc(Cl)cc2)nc(SCc2ccc(C(=O)O)cc2)[nH]c1=O', 'Non-Toxic'),
  ('N#Cc1c(-c2nccs2)nc(SCc2cccc(C(=O)O)c2)[nH]c1=O', 'Non-Toxic'),
  ('N#Cc1c(-c2ccccc2)nc(SCc2cccc(C(=O)O)c2)[nH]c1=O', 'Non-Toxic'),
  ('N#Cc1c(-c2cccs2)nc(SCc2cccc(-c3nn[nH]n3)c2)[nH]c1=O', 'Non-Toxic');
